- System: SN12C renal
- assay.details: NCI tumour cell line growth inhibition, 48 h; in the data active = GI50 below about 0.43 µM; inactive = the rest
// classify into True (active), False (inactive)

CCCC(=O)O[C@]1(C)CC[C@@H]2[C@H]3[C@@H]1[C@@H]1C/C(C)=C\CC[C@](C)(OC(=O)[C@@H]2C)[C@H]3O1 :: False
Clc1ccc(N/N=C(\c2ccccc2)c2ccccn2)nc1 :: True
CC(=O)[O][Hg][CH2]C1(C)COC(C)([CH2][Hg][O]C(C)=O)CO1 (stereo not drawn) :: False
C=C1C(=O)O[C@H]2[C@H]1CC/C(COC(=O)C(=O)c1c[nH]c3ccc(Cl)cc13)=C\CC[C@@]1(C)O[C@@H]21 :: False
Cc1cc(S(=O)(=O)Nc2nc3ccccc3[nH]2)c(SCc2ccccc2)cc1Cl :: False

Asked: Outcome? COc1cc2oc(-c3cccc(C(=O)Nc4ccc(C)cc4)c3)cc(=O)c2c(OC)c1OC
Given back: False

Asked: Outcome? O=C1Nc2ccc(CN3CCOC3=O)cc2/C1=C/c1cc(CN2CCOCC2)c[nH]1
Given back: False

Asked: Outcome? O=c1oc2c(cc1-c1ccccc1)C(O)Oc1ccccc1-2 (stereo not drawn)
Given back: False

----------
- Tested on: NCI-H226 lung
- assay.details: NCI tumour cell line growth inhibition, 48 h
Catalogue of TGI values

Study these solved cases before continuing.
C[N+]1(c2ccccc2)C=C(c2ccccc2)SC1=S (stereo not drawn) :: > 100 µM
NC(=S)N/N=C1\CC(c2ccccc2)Nc2ccccc21 (stereo not drawn) :: > 100 µM
CCOC(=O)N1CCc2cc(OC)c(OC)cc2/C1=C/c1ccc(OC)c(OC)c1 :: > 100 µM

Asked: Looking for the measured TGI of C/C(CC(=O)Nc1ccccc1)=N\NC(N)=S , can you help?
Given back: > 100 µM

Asked: Looking for the measured TGI of CC(=O)c1c(C)cc2cccc(OC3OC(CO)C(O)C(O)C3O)c2c1O (stereo not drawn) (tested in a mixture with another compound) , can you help?
Given back: > 100 µM

Asked: Looking for the measured TGI of Cc1ccc2nc(-c3ccc(-c4nc5ccc(C)cc5o4)c(O)c3)oc2c1 , can you help?
Given back: > 100 µM

----------
- System: SNB-19 CNS
- assay.details: NCI tumour cell line growth inhibition, 48 h
Where a SMILES comes first, the peptide text is derived from it. The star is where a group is joined. Boc = CC(C)(C)OC(=O)*; Bn = c1ccc(C*)cc1
measured.attribute: TGI

Study these solved cases before continuing.
COC(=O)C(CC(C)C)NC(=O)CNC(=O)C(Cc1ccc(OCc2ccccc2)cc1)NC(=O)C(COCc1ccccc1)NC(=O)OC(C)(C)C (stereo not drawn) (Boc-S(Bn)Y(Bn)GL-OMe; configuration not given here) :: > 100 µM
COc1cc(OC)c2nc(C)c3c(c2c1)OCC3 :: > 100 µM

Next up:
Asked: Looking for the measured TGI of CC(=O)C(N=NC1CCC(S(=O)(=O)NB2N=CS2)CC1)C(=O)Nc1ccccc1C (stereo not drawn) , can you help?
Given back: 31.2 µM

----------
Catalogue of TGI values
- Test system: KM12 colon
- assay.details: NCI tumour cell line growth inhibition, 48 h

Study these solved cases before continuing.
NC(=NCCO)c1ccc(N2CCCN(c3ccc(C(N)=NCCO)cc3)CC2)cc1 :: > 100 µM
CC1(C)Cc2nnsc2C2=C1C(=O)CCS2 :: > 100 µM
COc1ccc(C2CC(c3cccc(OC)c3)=NN2C(=O)c2cc(OC)c(OC)c(OC)c2)cc1 (stereo not drawn) :: > 100 µM
COc1cc(/C=C2\NC(=S)C3Cc4c(OC)c(C)c(OC)c(OC)c4C2N3C)c(OC)c(C)c1OC (stereo not drawn) :: > 100 µM
CCOC(=O)C(O)Cc1cnc2ccccc2n1 (stereo not drawn) :: > 100 µM

Asked: Hi! What's the reported TGI for O=C1c2ccccc2C(=O)c2sc(Nc3ccc(Cl)cc3)nc21 on KM12 colon?
Given back: 5.03 µM

Asked: Hi! What's the reported TGI for CC(=O)OC1CC2(O)C(CCC3(C)C(c4ccc(=O)oc4)CCC32O)C2(C)CCC(OC3OC(CO)C(O)C(O)C3O)C=C12 (stereo not drawn) on KM12 colon?
Given back: 0.2 µM

Asked: Hi! What's the reported TGI for CC(C)(C)Cc1cc(O)ccc1O on KM12 colon?
Given back: > 100 µM

All figures here come from PubChem BioAssay (NCI).
